Each record here notes measured Osteocalcin Suppression (ED80 dose).
System: Serum osteocalcin
PROTOCOL_SUMMARY: Serum osteocalcin suppression, 28-day repeat dose mouse model
Format: in vivo, Swiss Webster female mice
COND: mice, oral gavage 28 days, serum osteocalcin
Protocol: The compounds were weighed and suspended in a vehicle of 0.5% methylcellulose/0.025% tween 20 (Sigma-Aldrich, St. Louis, Mo.). […] To establish a dosing regimen for the studies, a pilot pharmacodynamic time course experiment was conducted to quantify TNFα repression after a single ED80 dose. Body weights were measured on the first and last day of each experiment. […] For each experiment, outliers were detected by calculating the number of standard deviations from the mean of the group. […]

Worked cases, Osteocalcin Suppression (ED80 dose) given:
Entry under test: Cc1c(NC(=O)c2ccc3c(c2)CC[C@@H]2C[C@@](O)(C(F)(F)F)CC[C@@]32Cc2ccccc2)ccc[n+]1[O-] . Its Osteocalcin Suppression (ED80 dose) was 7.27 mg/kg

Entry under test: Cc1ncccc1NC(=O)c1ccc2c(c1)C=C[C@@H]1C[C@@](O)(C(F)(F)F)CC[C@@]21Cc1ccccc1 . Its Osteocalcin Suppression (ED80 dose) was >20 mg/kg

Entry under test: Cc1ncccc1NC(=O)c1ccc2c(c1)[C@H](O)C[C@@H]1C[C@@](O)(C(F)(F)F)CC[C@@]21Cc1ccccc1 . Its Osteocalcin Suppression (ED80 dose) was >10 mg/kg

Continuing:
Entry under test: C[C@]12C=CC(=O)C=C1CC[C@@H]1[C@@H]2[C@@H](O)C[C@@]2(C)[C@H]1CC[C@]2(O)C(=O)CO . Its Osteocalcin Suppression (ED80 dose) was 6.80 mg/kg

Entry under test: Cc1ncccc1NC(=O)c1ccc2c(c1)CC[C@@H]1C[C@@](O)(C(F)(F)F)CC[C@@]21Cc1ccccc1 . Its Osteocalcin Suppression (ED80 dose) was >10 mg/kg

Entry under test: Cc1cnc(NC(=O)c2ccc3c(c2)CC[C@@H]2C[C@@](O)(C(F)(F)F)CC[C@@]32Cc2ccccc2)c(C)n1 . Its Osteocalcin Suppression (ED80 dose) was >10 mg/kg

Entry under test: Cc1ncccc1NC(=O)c1ccc2c(c1)C(=O)C[C@@H]1C[C@@](O)(C(F)(F)F)CC[C@@]21Cc1ccccc1 . Its Osteocalcin Suppression (ED80 dose) was 1.71 mg/kg

Source of measurements: patent US7786097B2
